These data points were gathered from patent US6774139B1.

study target: purified recombinant HIV-1 RT (Human immunodeficiency virus type 1 group M subtype B, UniProt P03366)
Construct: purified recombinant HIV-1 RT
assay text: cell-free Quan-T-RT RT inhibition assay (scintillation proximity)
Type: biochemical
experimental parameters: IC50 [rRT], purified recombinant HIV-1 RT, cell-free
pIC50: −log10 of the molar value.
Each entry gets not satisfied if its pIC50 stays under 6, and satisfied if its pIC50 is 6 or above.

Q. Is reported pIC50 greater than or equal to 6 here: FC(F)(F)c1ccc(NC(=S)NCCN2CCCCC2)nc1 [HI 344]
A. not satisfied

Q. Is reported pIC50 greater than or equal to 6 here: Fc1ccccc1CCNC(=S)Nc1ccc(Br)cn1 [HI 240]
A. satisfied

Q. Is reported pIC50 greater than or equal to 6 here: S=C(NCCN1CCNCC1)Nc1ccc(Br)cn1 [HI 258]
A. not satisfied

Q. Is reported pIC50 greater than or equal to 6 here: COc1cccc(CCNC(=S)Nc2ccc(Br)cn2)c1 [HI 239]
A. satisfied

Q. Is reported pIC50 greater than or equal to 6 here: FC(F)(F)c1ccc(NC(=S)NCCc2ccccn2)nc1 [HI 309]
A. not satisfied

Q. Is reported pIC50 greater than or equal to 6 here: FC(F)(F)c1ccc(NC(=S)NCCc2ccccc2)nc1 [HI 308]
A. not satisfied

Q. Is reported pIC50 greater than or equal to 6 here: Fc1ccccc1CCNC(=S)Nc1ccc(C(F)(F)F)cn1 [HI 311]
A. satisfied

Q. Is reported pIC50 greater than or equal to 6 here: S=C(NCCN1CCCCC1)Nc1ccc(Br)cn1 [HI 172]
A. not satisfied

Q. Is reported pIC50 greater than or equal to 6 here: S=C(NCCC1=CCCCC1)Nc1ccccn1 [HI-541]
A. not satisfied

Q. Is reported pIC50 greater than or equal to 6 here: S=C(NCCc1ccccn1)Nc1ccccn1 [HI 207]
A. satisfied

Q. Is reported pIC50 greater than or equal to 6 here: S=C(NCCc1cccc(Cl)c1)Nc1ccc(Br)cn1 [HI 254]
A. not satisfied

Q. Is reported pIC50 greater than or equal to 6 here: S=C(NCCc1cccs1)Nc1ccc(Br)cn1 [HI 443]
A. not satisfied

Q. Is reported pIC50 greater than or equal to 6 here: S=C(NCCC1=CCCCC1)Nc1ccc(Br)cn1 [HI 346]
A. satisfied

Q. Is reported pIC50 greater than or equal to 6 here: COc1ccc(CCNC(=S)Nc2ccc(Br)cn2)cc1OC [HI 232]
A. not satisfied

Q. Is reported pIC50 greater than or equal to 6 here: S=C(NCCN1CCCC1)Nc1ccc(Br)cn1 [HI 230]
A. not satisfied

Q. Is reported pIC50 greater than or equal to 6 here: Fc1ccc(CCNC(=S)Nc2ccc(Br)cn2)cc1 [HI 242]
A. not satisfied

Q. Is reported pIC50 greater than or equal to 6 here: COc1ccc(OC)c(CCNC(=S)Nc2ccc(Br)cn2)c1 [HI 236]
A. satisfied
